The values you see were collected from ChEMBL document CHEMBL4354876.

- target_or_test_system: Peroxisome proliferator-activated receptor delta (Homo sapiens) (UniProt Q03181)
- Sequence (Q03181 whole entry, the tested form may be a part): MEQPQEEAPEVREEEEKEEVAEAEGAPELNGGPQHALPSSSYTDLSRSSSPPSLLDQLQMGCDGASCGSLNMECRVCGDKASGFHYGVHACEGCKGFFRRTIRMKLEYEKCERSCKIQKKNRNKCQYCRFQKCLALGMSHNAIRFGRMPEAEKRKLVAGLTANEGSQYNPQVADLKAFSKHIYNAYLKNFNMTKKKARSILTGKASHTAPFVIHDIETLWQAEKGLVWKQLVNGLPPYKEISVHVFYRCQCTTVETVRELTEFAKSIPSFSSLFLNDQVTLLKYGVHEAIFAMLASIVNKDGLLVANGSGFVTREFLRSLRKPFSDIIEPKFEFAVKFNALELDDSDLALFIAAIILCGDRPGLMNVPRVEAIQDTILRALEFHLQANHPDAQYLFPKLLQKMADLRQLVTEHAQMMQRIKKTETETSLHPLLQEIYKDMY
- test_method_notes: Partial agonist activity at Gal4-fused PPARdelta LBD (unknown origin) expressed in HEK293T cells after 14 to 16 hrs by dual-Glo luciferase assay relative to L165041
- Format: cell-based
measured_parameter: max activation (%)
Give your result in % as a bare value.

Given the compound CCCCCCC(Sc1nc2ccc(NCc3ccc4ccccc4c3)cc2s1)C(=O)O (centres undefined) , what is its reported max activation? 23

Given the compound CCCCCCC(Sc1nc2ccc(NCc3cc(Cl)cc(Cl)c3)cc2s1)C(=O)O (centres undefined) , what is its reported max activation? 25

Given the compound CCCCCC[C@@H](Sc1nc2ccc(NS(=O)(=O)c3ccc(Cl)cc3Cl)cc2s1)C(=O)O , what is its reported max activation? 26

Given the compound CCCCCCC(Sc1nc2ccc(NC(=O)c3ccccc3)cc2s1)C(=O)O (centres undefined) , what is its reported max activation? 27

Given the compound CCCCCC[C@H](Sc1nc2ccc(NS(=O)(=O)c3ccc(Cl)cc3Cl)cc2s1)C(=O)O , what is its reported max activation? 13

Given the compound CCCCCCC(Sc1nc2ccc(NC(=O)c3ccc(C(C)(C)C)cc3)cc2s1)C(=O)O (centres undefined) , what is its reported max activation? 22

Given the compound CCCCCCC(Sc1nc2ccc(NCc3ccccc3)cc2s1)C(=O)O (centres undefined) , what is its reported max activation? 19

Given the compound CCCCCCC(Sc1nc2ccc(NS(=O)(=O)c3ccc(Cl)cc3Cl)cc2s1)C(=O)O (centres undefined) , what is its reported max activation? 12

Given the compound CCCCCCC(Sc1nc2ccc(NS(=O)(=O)c3ccc(Cl)cc3)cc2s1)C(=O)O (centres undefined) , what is its reported max activation? 21

----------
- target_or_test_system: Peroxisome proliferator-activated receptor alpha (Homo sapiens)
- Sequence (whole entry): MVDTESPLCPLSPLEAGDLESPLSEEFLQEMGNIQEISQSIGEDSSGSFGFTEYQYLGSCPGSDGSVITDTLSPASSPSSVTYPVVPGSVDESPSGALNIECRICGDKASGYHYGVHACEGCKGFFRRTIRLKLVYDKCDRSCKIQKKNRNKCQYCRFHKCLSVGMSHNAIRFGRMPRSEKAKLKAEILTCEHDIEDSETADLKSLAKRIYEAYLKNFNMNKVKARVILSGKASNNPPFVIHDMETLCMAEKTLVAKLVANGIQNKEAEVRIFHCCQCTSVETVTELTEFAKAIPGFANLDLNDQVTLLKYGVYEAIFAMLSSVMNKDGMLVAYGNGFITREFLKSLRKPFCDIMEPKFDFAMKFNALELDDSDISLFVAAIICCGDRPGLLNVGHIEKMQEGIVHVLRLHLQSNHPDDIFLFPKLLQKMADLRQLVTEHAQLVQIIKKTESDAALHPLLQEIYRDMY
- test_method_notes: Partial agonist activity at Gal4-fused PPARalpha LBD (unknown origin) expressed in HEK293T cells after 14 to 16 hrs by dual-Glo luciferase assay relative to GW7647
- Assay type: cell-based
What max activation was measured for each of the following?
Give your result in % as a bare value.

Given the compound CCCCCCC(Sc1nc2ccc(NCc3cccc(Cl)c3)cc2s1)C(=O)O (stereo not drawn) , what is its reported max activation? 51

Given the compound CCCCCCC(Sc1nc2ccc(NS(=O)(=O)c3ccc(-c4ccccc4)cc3)cc2s1)C(=O)O (stereo not drawn) , what is its reported max activation? 23

Given the compound CCCCCCC(Sc1nc2ccc(NCc3cc(Cl)cc(Cl)c3)cc2s1)C(=O)O (stereo not drawn) , what is its reported max activation? 19

Given the compound CCCCCCC(Sc1nc2ccc(NC(=O)c3ccc(C(C)(C)C)cc3)cc2s1)C(=O)O (stereo not drawn) , what is its reported max activation? 12

Given the compound CCCCC(Sc1nc2ccc(NC(=O)c3ccc(C(C)(C)C)cc3)cc2s1)C(=O)O (stereo not drawn) , what is its reported max activation? 11

Given the compound CCCCCCC(Sc1nc2ccc(NC(=O)c3ccccc3)cc2s1)C(=O)O (stereo not drawn) , what is its reported max activation? 31

Given the compound CCCCCCC(Sc1nc2ccc(NCc3ccccc3)cc2s1)C(=O)O (stereo not drawn) , what is its reported max activation? 28

Given the compound CCCCCCC(Sc1nc2ccc(NCc3ccc(C(C)(C)C)cc3)cc2s1)C(=O)O (stereo not drawn) , what is its reported max activation? 39

Given the compound CCCCCC[C@H](Sc1nc2ccc(NS(=O)(=O)c3ccc(Cl)cc3Cl)cc2s1)C(=O)O , what is its reported max activation? 28

Given the compound CCCCCCC(Sc1nc2ccc(NCc3ccc(Cl)c(Cl)c3)cc2s1)C(=O)O (stereo not drawn) , what is its reported max activation? 26

Given the compound CCCCCCC(Sc1nc2ccc(NCc3ccc(C(F)(F)F)cc3)cc2s1)C(=O)O (stereo not drawn) , what is its reported max activation? 59

Given the compound CCCCCCC(Sc1nc2ccc(NCc3ccc4ccccc4c3)cc2s1)C(=O)O (stereo not drawn) , what is its reported max activation? 32

Given the compound CCCCCCC(Sc1nc2ccc(NCc3ccc(Cl)cc3)cc2s1)C(=O)O (stereo not drawn) , what is its reported max activation? 37

----------
- test_method_notes: Partial agonist activity at recombinant PPARgamma LBD/N-terminal GFP-fused RXRalpha mutant LBD (unknown origin) assessed as increase in biotinylated-CBP peptide recruitment measured after 2 hrs by HTRF assay
- Set-up: species or system Homo sapiens
What EC50 was measured for each of the following?
Give your result in µM as a bare value.

Given the compound CCCCCCC(Sc1nc2ccc(NS(=O)(=O)c3ccc(Cl)cc3Cl)cc2s1)C(=O)O (configuration not stated) , what is its reported EC50? 0.437

Given the compound CN(CCOc1ccc(CC2SC(=O)NC2=O)cc1)c1ccccn1 (configuration not stated) , what is its reported EC50? 0.121

----------
- target_or_test_system: Peroxisome proliferator-activated receptor gamma (Homo sapiens)
- Sequence (whole entry): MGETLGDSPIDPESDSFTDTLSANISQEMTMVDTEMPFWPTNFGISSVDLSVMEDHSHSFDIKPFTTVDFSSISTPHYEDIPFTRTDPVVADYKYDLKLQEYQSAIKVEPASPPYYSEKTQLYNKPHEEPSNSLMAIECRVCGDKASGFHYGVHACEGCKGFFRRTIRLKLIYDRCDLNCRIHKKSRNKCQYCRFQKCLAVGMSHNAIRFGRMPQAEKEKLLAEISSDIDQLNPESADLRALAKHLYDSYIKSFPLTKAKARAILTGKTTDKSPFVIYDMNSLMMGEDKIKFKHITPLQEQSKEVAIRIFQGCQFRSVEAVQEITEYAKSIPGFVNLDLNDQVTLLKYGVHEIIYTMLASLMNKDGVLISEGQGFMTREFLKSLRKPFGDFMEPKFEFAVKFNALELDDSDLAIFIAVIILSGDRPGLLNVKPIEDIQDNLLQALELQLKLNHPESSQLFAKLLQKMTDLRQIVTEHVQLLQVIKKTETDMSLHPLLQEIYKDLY
- test_method_notes: Partial agonist activity at Gal4-fused PPARgamma LBD (unknown origin) expressed in HEK293T cells after 14 to 16 hrs by dual-Glo luciferase assay relative to pioglitazone
- Type: cell-based
measured_parameter: max activation (%)
Give your result in % as a bare value.

# value lookup — system Peroxisome proliferator-activated receptor gamma (Homo sapiens), readout max activation, item CCCCC(Sc1nc2ccc(NC(=O)c3ccc(C(C)(C)C)cc3)cc2s1)C(=O)O (stereo not drawn) 7.1

# value lookup — system Peroxisome proliferator-activated receptor gamma (Homo sapiens), readout max activation, item CCCCCC[C@@H](Sc1nc2ccc(NS(=O)(=O)c3ccc(Cl)cc3Cl)cc2s1)C(=O)O 101

# value lookup — system Peroxisome proliferator-activated receptor gamma (Homo sapiens), readout max activation, item CCCCCCC(Sc1nc2ccc(NS(=O)(=O)c3ccc(-c4ccccc4)cc3)cc2s1)C(=O)O (stereo not drawn) 26

# value lookup — system Peroxisome proliferator-activated receptor gamma (Homo sapiens), readout max activation, item CCCCCCC(Sc1nc2ccc(NC(=O)c3ccccc3)cc2s1)C(=O)O (stereo not drawn) 43

# value lookup — system Peroxisome proliferator-activated receptor gamma (Homo sapiens), readout max activation, item CCCCCCC(Sc1nc2ccc(NCc3ccc(C(F)(F)F)cc3)cc2s1)C(=O)O (stereo not drawn) 39

# value lookup — system Peroxisome proliferator-activated receptor gamma (Homo sapiens), readout max activation, item CCCCCCC(Sc1nc2ccc(NCc3ccc(Cl)cc3)cc2s1)C(=O)O (stereo not drawn) 50

# value lookup — system Peroxisome proliferator-activated receptor gamma (Homo sapiens), readout max activation, item CCCCCC[C@H](Sc1nc2ccc(NS(=O)(=O)c3ccc(Cl)cc3Cl)cc2s1)C(=O)O 75

# value lookup — system Peroxisome proliferator-activated receptor gamma (Homo sapiens), readout max activation, item CCCCCCC(Sc1nc2ccc(NS(=O)(=O)c3ccc(Cl)cc3Cl)cc2s1)C(=O)O (stereo not drawn) 67

# value lookup — system Peroxisome proliferator-activated receptor gamma (Homo sapiens), readout max activation, item CCCCCCC(Sc1nc2ccc(NCc3ccc4ccccc4c3)cc2s1)C(=O)O (stereo not drawn) 53

# value lookup — system Peroxisome proliferator-activated receptor gamma (Homo sapiens), readout max activation, item CCCCCCC(Sc1nc2ccc(NCc3ccccc3)cc2s1)C(=O)O (stereo not drawn) 47

# value lookup — system Peroxisome proliferator-activated receptor gamma (Homo sapiens), readout max activation, item CCCCCCC(Sc1nc2ccc(NCc3ccc(-c4ccccc4)cc3)cc2s1)C(=O)O (stereo not drawn) 34

# value lookup — system Peroxisome proliferator-activated receptor gamma (Homo sapiens), readout max activation, item CCCCCCC(Sc1nc2ccc(NCc3ccc(Cl)c(Cl)c3)cc2s1)C(=O)O (stereo not drawn) 73

# value lookup — system Peroxisome proliferator-activated receptor gamma (Homo sapiens), readout max activation, item CCCCCCC(Sc1nc2ccc(NS(=O)(=O)c3ccc(Cl)cc3)cc2s1)C(=O)O (stereo not drawn) 39

# value lookup — system Peroxisome proliferator-activated receptor gamma (Homo sapiens), readout max activation, item CCCCCCC(Sc1nc2ccc(NCc3cc(Cl)cc(Cl)c3)cc2s1)C(=O)O (stereo not drawn) 35

# value lookup — system Peroxisome proliferator-activated receptor gamma (Homo sapiens), readout max activation, item CCCCCCC(Sc1nc2ccc(NCc3ccc(C(C)(C)C)cc3)cc2s1)C(=O)O (stereo not drawn) 28

# value lookup — system Peroxisome proliferator-activated receptor gamma (Homo sapiens), readout max activation, item CCCCCCC(Sc1nc2ccc(NC(=O)c3ccc(C(C)(C)C)cc3)cc2s1)C(=O)O (stereo not drawn) 19

# value lookup — system Peroxisome proliferator-activated receptor gamma (Homo sapiens), readout max activation, item CCCCCCC(Sc1nc2ccc(NCc3cccc(Cl)c3)cc2s1)C(=O)O (stereo not drawn) 47

# value lookup — system Peroxisome proliferator-activated receptor gamma (Homo sapiens), readout max activation, item CCCCCCC(Sc1nc2ccc(NS(=O)(=O)c3ccc(C(C)(C)C)cc3)cc2s1)C(=O)O (stereo not drawn) 30
